system: P. falciparum stage V gametocytes; design: BacTiter-Glo ATP luminescence viability of purified stage V gametocytes in 384-well plates, per cent inhibition versus DMSO; conditions: 48 h, 5 µM; inhibitor
The campaign covered roughly 13,000 compounds. About 3,200 (25%) showed an effect of 50% or more. Some of the results follow.
parameter: % Inhibition (%)
Please state the figure in %; there is no need to write the unit.

Here's what some known entries look like.
compound | parameter | readout value
Cc1cc(N[C@@H](CC(C)C)C(=O)NCCc2ccccc2)nc(NCCc2ccc(F)cc2)n1 | % Inhibition | 48.22
COc1ccc2ccccc2c1C=NNc1ccnc2cc(Cl)ccc12 | % Inhibition | -70.44
Clc1cccc(CNC2CCN(CC3CCCCC3)CC2)c1 | % Inhibition | 7.676
Cn1cccc1C(=O)Nc1cccc(-c2nn3ccccc3c2-c2ccnc(Nc3ccc4c(c3)OCCO4)n2)c1 | % Inhibition | -4.275
CCOc1ccc(OCCCON2C(N)=NC(N)=NC2(C)C)cc1 | % Inhibition | -0.1444

[ask] Request: % Inhibition, test system P. falciparum stage V gametocytes, entry OC(CNCc1ccccc1)c1cc(OCc2ccccc2)cc(OCc2ccccc2)c1 (stereo not shown)
[reply] 44.54

[ask] Request: % Inhibition, test system P. falciparum stage V gametocytes, entry Cc1cc(N[C@@H](CC(C)C)C(=O)NCCCOC(C)C)nc(NCCc2ccc(F)cc2)n1
[reply] 54.17

[ask] Request: % Inhibition, test system P. falciparum stage V gametocytes, entry Cc1cccc(CNc2nc(C)cc(N[C@@H](CC(C)C)C(=O)NCc3cccc(F)c3)n2)c1
[reply] -6.286

[ask] Request: % Inhibition, test system P. falciparum stage V gametocytes, entry COc1ccc(CCn2c(=N)c(C(=O)NCc3ccc(C)cc3)cc3c(=O)n4ccccc4nc32)cc1
[reply] 27.16

[ask] Request: % Inhibition, test system P. falciparum stage V gametocytes, entry CC(C)(C)c1cc(CN2CCN(Cc3ccccc3)CC2)cc(C(C)(C)C)c1O
[reply] -7.705

###

Reported % Inhibition by item:
test system: P. falciparum stage V gametocytes; set-up: BacTiter-Glo ATP luminescence viability of purified stage V gametocytes in 384-well plates, per cent inhibition versus DMSO; conditions: 48 h, 5 µM; inhibitor
About 3,200 (25%) of roughly 13,000 compounds showed an effect of 50% or more. The list shows a part of the results.
Kindly write the number and append the unit.

Here's what some known entries look like.
substance smiles | % Inhibition
O=C(NC1CCN(Cc2ccccc2)CC1)c1cccc(-c2nc3ccc(Cl)cc3[nH]2)c1 | 27.77%
CC(C)(C)c1ccc2nc(-c3ccc(C(=O)NC4CCN(Cc5ccccc5)CC4)s3)[nH]c2c1 | 58.98%
O=C(NC12CC3CC(CC(C3)C1)C2)C(=O)c1c[nH]c2ccccc12 | -3.925%

Below: the item to evaluate.
[ask] Request: % Inhibition, test system P. falciparum stage V gametocytes, entry Cc1cc2nc(-c3ccc(C(=O)NC4CCN(Cc5ccccc5)CC4)cc3)[nH]c2cc1C
[reply] -59.23%

###

Reported % Inhibition by item:
test system: P. falciparum stage V gametocytes; set-up: BacTiter-Glo ATP luminescence viability of purified stage V gametocytes in 384-well plates, per cent inhibition versus DMSO; conditions: 48 h, 5 µM; inhibitor
About 3,200 (25%) of roughly 13,000 compounds showed an effect of 50% or more. The list shows a part of the results.
Please state the figure in %; there is no need to write the unit.

compound | unit text | % Inhibition
CCOc1ccc2ccccc2c1C(=O)Nc1cc(C)nn1-c1nc(C)cc(=O)[nH]1 | % | -19.22
O=c1cc(NCCCNCc2ccc(Cl)c(Cl)c2)[nH]c2ccc(Oc3ccccc3)cc12 | % | 3.988
CN(CCS(C)(=O)=O)Cc1ccc(-c2ccc3ncnc(Nc4ccc(OCc5cccc(F)c5)c(Cl)c4)c3c2)o1 | % | -22.68
O=C(Nc1cccc(C(F)(F)F)c1)NC1CCN(c2ccnc3ccccc23)C1 (centres unmarked) | % | -23.57
CC(C)(C)C1CCc2nc(N)nc(N)c2C1 (centres unmarked) | % | 82.06
O=c1cnc2ccc(F)cc2n1CCN1CCC(NCc2cc(-c3ccccc3)cs2)CC1 | % | -21.73
CCNC(=O)CCc1cccc(Br)c1 | % | 26.26
NC1=NC(c2ccccc2)N(c2ccccc2)C(N)=N1 (centres unmarked) | % | -71.64
COc1ccc(C(F)(F)F)cc1N1CCN(CCCCNC(=O)c2ccc(NC(=O)c3ccc(Cl)cc3)cc2)CC1 | % | -21.85
Cc1cc2c(cc1C(F)(F)F)N(C(=O)Nc1cccc(C(=O)NC3CCN(Cc4ccccc4)CC3)c1)CC2 | % | -14.42

Below: the item to evaluate.
[ask] Value lookup for % Inhibition; key = CCN(CC)C(=O)C1CCCN(C(=O)Nc2cc(C(F)(F)F)cc(C(F)(F)F)c2)C1 (centres unmarked)
[reply] -75.6

###

system: P. falciparum stage V gametocytes; design: BacTiter-Glo ATP luminescence viability of purified stage V gametocytes in 384-well plates, per cent inhibition versus DMSO; details: 48 h, 5 µM; inhibitor
Out of some 13,000 compounds screened, about 3,200 (25%) showed an effect of 50% or more. This is one part of the list.
parameter: % Inhibition (%)
Please state the figure in %; there is no need to write the unit.

Here's what some known entries look like.
compound | unit text | % Inhibition
OC(COc1ccccc1-c1nc2ccccc2o1)CN1CCCN(CCc2ccccc2)CC1 (stereo not shown) | % | 28.2
CC1(C(=O)Nc2ccc([N+](=O)[O-])cc2O)CC2c3ccccc3C1c1ccccc12 (stereo not shown) | % | -1.633
Cc1cc(F)ccc1[C@H]1C[C@H](N2CCOCC2)CCN1C(=O)N(C)[C@@H](C)c1cc(C(F)(F)F)cc(C(F)(F)F)c1 | % | 17.17
Cc1cc(NC2CCCC2)nc(Nc2ccccc2C)n1 | % | -0.2818
COc1cccc(-c2cc3nc4c(c(NCCCn5ccnc5)n3n2)CCCC4)c1 | % | -20.83
CC(=O)c1sc2ccccc2c1O | % | 14.25

[ask] Request: % Inhibition, test system P. falciparum stage V gametocytes, entry O=C(Nc1ccc2c(c1)CCC2)c1cccc(CN2CCCN(Cc3cccc(O)c3)CC2)c1
[reply] 14.29

[ask] Request: % Inhibition, test system P. falciparum stage V gametocytes, entry COc1ccc2nccc([C@@H](O)CN3CCC(NC(=O)c4ccc(OC)c(N)c4)CC3)c2c1
[reply] 8.441

[ask] Request: % Inhibition, test system P. falciparum stage V gametocytes, entry CCCCCc1ccc(N2C(N)=NC(N)=NC2(C)C)cc1
[reply] 8.731

[ask] Request: % Inhibition, test system P. falciparum stage V gametocytes, entry Nc1nc(N)c2c(ccc3nn(S(=O)(=O)N4CCCC4)cc32)n1
[reply] 1.328

###

system: P. falciparum stage V gametocytes; parameters: BacTiter-Glo ATP luminescence viability of purified stage V gametocytes in 384-well plates, per cent inhibition versus DMSO; settings: 48 h, 5 µM; inhibitor
Hit rate of the full screen: of about 13,000 compounds, about 3,200 (25%) showed an effect of 50% or more. The list shows a part of the results.
parameter: % Inhibition (%)
Please state the figure in %; there is no need to write the unit.

Here's what some known entries look like.
substance smiles | system under test | unit text | % Inhibition
COc1ccc2nccc(N3CCCN(CCNS(=O)(=O)c4ccc5c(c4)NC(=O)CS5)CC3)c2n1 | P. falciparum stage V gametocytes | % | 20.86
COc1ccc(N2CCN(CCCC/C=C/c3ccc(NC(=O)c4cc(Cl)cc(Cl)c4)cc3)CC2)c(OC)c1 | P. falciparum stage V gametocytes | % | 10.07
CC[C@H]1CN2CC[C@H]1C[C@H]2[C@H](O)c1cc(-c2ccc(C)cc2)nc2ccc(OC)cc12 | P. falciparum stage V gametocytes | % | 31.69
CC[C@H]1CN2CC[C@H]1C[C@H]2[C@H](O)c1cc(-c2ccc3ccccc3c2)nc2ccc(OC)cc12 | P. falciparum stage V gametocytes | % | 91.14
Cn1c(=N)cc(-c2ccc(Br)cc2)c2c(=O)[nH]c(N)nc21 | P. falciparum stage V gametocytes | % | 6.431

[ask] Value lookup for % Inhibition; key = O=C(C=Cc1cn(-c2ccccc2)nc1-c1cccs1)N1CCN(c2ccncc2)CC1
[reply] 51.82

[ask] Value lookup for % Inhibition; key = CC(C)CCNCc1ccc(OCc2cccc(COc3ccc(CNCCC(C)C)cc3I)c2)c(I)c1
[reply] 110.6

[ask] Value lookup for % Inhibition; key = COc1ccc(N2CCN(CCCCNC(=O)c3ccc(NC(=O)c4ccc(Cl)cc4)cc3)CC2)c(OC)c1
[reply] -18.96

###

system: P. falciparum stage V gametocytes; parameters: BacTiter-Glo ATP luminescence viability of purified stage V gametocytes in 384-well plates, per cent inhibition versus DMSO; settings: 48 h, 5 µM; inhibitor
The whole screen tested about 13,000 compounds, of which about 3,200 (25%) showed an effect of 50% or more. The list shows a part of the results.
Reported % Inhibition by item:
Please state the figure in %; there is no need to write the unit.

molecule | system under test | readout value
CCCNCc1ccc(-c2ccc(CN(C(=O)c3nn(-c4ccccc4)nc3C)C3CCOCC3)cc2)nc1 | P. falciparum stage V gametocytes | 9.201
COc1cccc2cc(C(=O)N[C@@H](CC(C)C)C(=O)N[C@H](/C=N/NC(=O)Cc3cccnc3)CCc3ccccc3)oc12 | P. falciparum stage V gametocytes | -9.897
O=C(Cc1cc(F)cc(F)c1)NC1CCN(c2ccnc3cc(Cl)ccc23)C1 (stereo not shown) | P. falciparum stage V gametocytes | 8.938
CCCNCc1ccc(-c2ccc(CN(C(=O)c3nn(-c4ccccc4)nc3C)C3CC3)cc2)nc1 | P. falciparum stage V gametocytes | 42.93
Oc1ccc(-c2nc3c4cc(I)ccc4c4ccc(I)cc4c3[nH]2)cc1 | P. falciparum stage V gametocytes | -25

[ask] Value lookup for % Inhibition; key = COc1ccc(-n2ccnc2SCC(=O)Nc2cccc(C(F)(F)F)c2)c(OC)c1
[reply] -5.921

[ask] Value lookup for % Inhibition; key = CC(=O)Nc1ccc(S(=O)(=O)N2CCN(c3nc(NC4CCCC4)c4ccccc4n3)CC2)cc1
[reply] 2.309

[ask] Value lookup for % Inhibition; key = CCNC(=O)c1cc(S(=O)(=O)N2CCN(c3ccccn3)CC2)cs1
[reply] 88.58

[ask] Value lookup for % Inhibition; key = CCCNCc1ccc(-c2ccc(CN(C(=O)c3nn(-c4ccccc4)nc3C)C(C)CN(C)C)cc2)nc1 (stereo not shown)
[reply] 64.23

[ask] Value lookup for % Inhibition; key = O=C(Nc1ccc(N2CCN(c3ncccc3C(F)(F)F)CC2)nc1)c1cccs1
[reply] 10.79

[ask] Value lookup for % Inhibition; key = O=C(NCCN1CCOCC1)c1ccc(-c2ccc(CNCCCc3ccccc3)cc2)nc1
[reply] 16.29

[ask] Value lookup for % Inhibition; key = CCCNCc1ccc(-c2ccc(CN(Cc3cnc(C)cn3)C(=O)c3nn(-c4ccccc4)nc3C)cc2)nc1
[reply] 27.98

[ask] Value lookup for % Inhibition; key = COc1cccc2cc(C(=O)N[C@@H](CC(C)C)C(=O)N[C@H](C=NNC(=O)OC(C)(C)C)Cc3ccccc3)oc12
[reply] -20.59
